Measured values drawn from PubChem BioAssay AID2234 for this set.

# tested on: Lytic switch protein BZLF1 (Epstein-Barr virus (strain B95-8)) (UniProt P03206)
# Sequence (P03206 whole entry, looked up): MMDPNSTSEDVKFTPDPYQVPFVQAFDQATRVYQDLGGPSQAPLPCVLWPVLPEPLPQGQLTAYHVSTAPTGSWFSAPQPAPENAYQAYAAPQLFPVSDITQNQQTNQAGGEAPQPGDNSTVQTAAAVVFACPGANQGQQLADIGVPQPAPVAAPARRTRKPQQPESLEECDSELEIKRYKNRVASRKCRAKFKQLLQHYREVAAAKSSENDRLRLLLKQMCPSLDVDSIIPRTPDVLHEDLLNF
# measurement protocol: Zta-DNA interaction blockers, Epstein-Barr virus – biochemical, fluorescence polarization, single concentration, counter-screen for EBNA-1 inhibitor project, primary screen (AID 2234)
# condition notes: ZTA-DNA binding, at 11 µM, hits give high values
The campaign covered roughly 320,000 compounds. About 480 (0.15%) were called active. For the sample, actives were picked, then their nearest neighbours and some compounds at random.
Entries and their inhibition
measurement type: inhibition (%)

molecule=CCN(CC)c1ccc(C(=O)Nn2c(C)nc3ccccc3c2=O)cc1 unit_tag=% result_number=-9.3
molecule=Cc1ccc(N2CCN(S(=O)(=O)N(C)C)CC2)cc1Cl unit_tag=% result_number=10.4
molecule=O=C(Cn1c(-c2ccc(Cl)cc2)noc1=O)N1CCN(c2ccccc2F)CC1 unit_tag=% result_number=-6.32
molecule=CCn1c(O)c2ccc(C(=O)N=NC(=O)c3cccnc3)cc2c1O unit_tag=% result_number=-7.57
molecule="CCCCC1N2CC3([N+](=O)[O-])CN1CC([N+](=O)[O-])(C2)C3(C)C (stereo unspecified)" unit_tag=% result_number=7.41
molecule=O=C(COc1cccc(F)c1)Oc1ccc(C(=O)c2ccccc2)cc1 unit_tag=% result_number=12.6
molecule=O=C(Nc1cccc(-c2nc3ccccc3[nH]2)c1)c1ccc(C(=O)Nc2cccc(-c3nc4ccccc4[nH]3)c2)cc1 unit_tag=% result_number=84
molecule=O=C(Cc1ncc(C(F)(F)F)cc1Cl)Nc1cccc(Br)c1 unit_tag=% result_number=-13.5
molecule="CC1(C)O[C@@H]2CC3C4C[C@H](F)C5=CC(=O)C=CC5(C)C4C(O)CC3(C)[C@]2(C(=O)CO)O1 (stereo partly specified)" unit_tag=% result_number=3.09
molecule=O=C(O)Cc1csc(NC(=O)CSc2nnnn2-c2ccc(O)cc2)n1 unit_tag=% result_number=2.08
molecule="COc1ccccc1P(=O)(c1ccccc1)c1ccccc1NC(C)=O (stereo unspecified)" unit_tag=% result_number=6.44
molecule="CC(=O)Nc1c2c(nn1-c1ccc(C)cc1C)CS(=O)C2 (stereo unspecified)" unit_tag=% result_number=-22.1
molecule="Cc1ccc(C(=O)NCC(c2cccs2)N(C)C)cc1S(=O)(=O)N1CCOCC1 (stereo unspecified)" unit_tag=% result_number=-3.98
molecule="CC12c3ccccc3C(c3ccccc31)C1C(=O)N(Cc3cccnc3)C(=O)C12 (stereo unspecified)" unit_tag=% result_number=5.39
molecule=Cc1ccc(C(=O)c2coc3ccc(O)c(CN(C)C)c23)cc1 unit_tag=% result_number=-9.15
molecule="CCCCNC(=O)C1(O)c2ccccc2NC(=O)N1c1ccc(Cl)cc1 (stereo unspecified)" unit_tag=% result_number=2.71
molecule="Cc1ccc(-c2nn(-c3ccc(F)cc3)cc2C(=O)NCC(c2cccs2)N2CCOCC2)cc1 (stereo unspecified)" unit_tag=% result_number=2.78
molecule="CN(C)Cc1c(O)ccc2occ(C(O)c3ccccc3)c12 (stereo unspecified)" unit_tag=% result_number=-10.8
molecule=COc1ccc(S(=O)(=O)/N=C2\C=C(NS(=O)(=O)c3ccccc3)C(=O)c3ccccc32)cc1 unit_tag=% result_number=7.31
molecule="COc1ccc(C(C(=O)NCC2CCCO2)N(C(=O)Cn2nnc3ccccc32)c2ccc(NC(C)=O)cc2)cc1OC (stereo unspecified)" unit_tag=% result_number=-7.72
molecule=O=C(NCCCN1CCOCC1)c1ccc2c(c1)N(Cc1cccc(F)c1)C(=O)c1ccccc1S2 unit_tag=% result_number=-13.9
molecule="C=C(Cl)COC(=O)C1C2C=CC(C2)C1C(=O)O (stereo unspecified)" unit_tag=% result_number=-6.87
molecule=O=C(Nc1ccc2oc(-c3ccccc3F)nc2c1)c1ccco1 unit_tag=% result_number=15.1
molecule=C=CCn1c(COc2ccc(F)cc2)nnc1SCC(=O)Nc1cccc(S(N)(=O)=O)c1 unit_tag=% result_number=3.26
molecule=O=C(Nc1ccccc1)c1cc2ccccc2[nH]1 unit_tag=% result_number=-12.6
molecule=CCc1nn(CCCC(=O)Nc2ccc(C)cc2C)c(=O)c2cc3occc3n12 unit_tag=% result_number=-0.14
